- Measurement Protocol: RP, Thermo Scientific Hypersil GOLD, 1.9 µm, 40 °C, 0.4 mL/min; A: water + 0.1% formic acid, pH 3; B: acetonitrile + 0.1% formic acid, pH 3; gradient (min/%B) 0/0 1/0 11/100 13/100 14/0 16/0
- Condition Summary: stereoisomer not certain
Measured Parameter: LC retention time (min)

CC(C)=CC(=O)OC(CC(=O)[O-])C[N+](C)(C)C (centres undefined); 4.71
CC(CCC(=O)O)C1CCC2C3CCC4CC(O)CCC4(C)C3CC(=O)C12C (centres undefined); 8.76
COc1cc(C(=O)O)ccc1O; 4.97
CCCCCCCCCC(=O)OCC(COP(=O)([O-])OCC[N+](C)(C)C)OC(=O)CCCCCCCCC (centres undefined); 11.1
C=CC1=C(C)C(C=c2[nH]c(=Cc3[nH]c(C=C4NC(=O)C(C)=C4C=C)c(C)c3CCC(=O)O)c(CCC(=O)O)c2C)=NC1=O; 7.99
O=S(=O)(O)c1ccc(O)c(O)c1 [3-4-dihydroxybenzenesulfonic acid]; 0.84
Cn1cnc2c(ncn2C2OC(CO)C(O)C2O)c1=N (centres undefined); 3.82
O=CCc1ccccc1; 10.3
Cc1c[nH]c(=O)[nH]c1=O; 1.47
Cc1cn(C2CC(O)C(CO)O2)c(=O)[nH]c1=O (centres undefined); 3.68

1 = O=C(C=Cc1ccc(O)c(O)c1)OC(Cc1ccc(O)c(O)c1)C(=O)O (centres undefined) [ROSMARINATE]
2 = NCCC(=O)NC(Cc1cnc[nH]1)C(=O)O (centres undefined)
Smaller LC retention time value? Options are 1 and 2 Refer to your chosen entry by its label in the reply.
2

I = NCc1ccccc1
II = O=c1c(O)c(-c2ccc(O)c(O)c2)oc2cc(O)cc(O)c12 [quercetine dihydrate]
III = O=C(O)CC(CC(=O)O)C(=O)O
IV = NC(CS(=O)(=O)O)C(=O)O (centres undefined) [CYSTEATE]
Order the records by LC retention time, with each subsequent value no larger than the one before. Give the labels in the order specified.
II, I, III, IV

====

- Measurement Protocol: RP, Thermo Scientific Hypersil GOLD, 1.9 µm, 40 °C, 0.4 mL/min; A: water + 0.1% formic acid, pH 3; B: acetonitrile + 0.1% formic acid, pH 3; gradient (min/%B) 0/0 1/0 11/100 13/100 14/0 16/0
- Condition Summary: stereoisomer not certain
Measured Parameter: LC retention time (min)

Example entries begin here.
O=C(CO)COP(=O)(O)O [DIHYDROXYACETONE PHOSPHATE]; 0.69
O=CCc1c[nH]c2ccccc12; 4.34
CCCCCCCCC=CCCCCCCCC(=O)OCC(O)CO (stereo unspecified); 12.1

P = O=C(O)Cc1cccc(O)c1 [3-HYDROXYPHENYLACETATE]
Q = CNC(CC(=O)O)C(=O)O (stereo unspecified) [N-METHYLASPARTATE]
Dear colleague, could you let me know whether P or Q has the lower recorded LC retention time? Thanks. Please indicate the selected item by its label.
Q
(Q: 0.63 min, P: 5.11 min)

1 = Cn1cnc2c1c(=O)[nH]c(=O)n2C
2 = NC(N)=NCC(=O)O [GUANIDINOACETATE]
3 = CC(=O)NC(C)C(=O)O (stereo unspecified)
Output the entries ranked by LC retention time from maximum down to minimum. Write the labels in rank order as requested.
1, 3, 2

P = O=C([O-])C(O)c1ccccc1 (stereo unspecified) [MANDELATE]
Q = Cc1ncc(CO)c(CN)c1O
Input pair: P , Q . Output: entry with lower LC retention time. Returns: label corresponding to the selected item.
Q

====

- Measurement Protocol: RP, Thermo Scientific Hypersil GOLD, 1.9 µm, 40 °C, 0.4 mL/min; A: water + 0.1% formic acid, pH 3; B: acetonitrile + 0.1% formic acid, pH 3; gradient (min/%B) 0/0 1/0 11/100 13/100 14/0 16/0
- Condition Summary: stereoisomer not certain
Measured Parameter: LC retention time (min)

OCC1OC(OCC2OC(OCC3OC(OC4(CO)OC(CO)C(O)C4O)C(O)C(O)C3O)C(O)C(O)C2O)C(O)C(O)C1O (stereo not given) [STACHYOSE]; 0.67

P = NC(Cc1cc(I)c(Oc2cc(I)c(O)c(I)c2)c(I)c1)C(=O)O (stereo not given) [THYROXINE]
Q = Nc1nc2ncc(CNc3ccc(C(=O)NC(CCC(=O)O)C(=O)O)cc3)nc2c(=O)[nH]1 (stereo not given) [FOLATE]
R = CC(O)C(O)C1=Nc2c(nc(N)[nH]c2=O)NC1 [7-8-Dihydro-L-biopterin]
Please list these molecules in decreasing order of LC retention time. Please list the labels in the order you were asked to rank them.
P, Q, R
(P: 7.42 min, Q: 4.68 min, R: 0.82 min)

1 = O=C(O)c1cccc(O)c1O [2-3-DIHYDROXYBENZOATE]
2 = Cc1cnc(=O)[nH]c1N [5-METHYLCYTOSINE]
// compare measured LC retention time, left 1 , right 2 , return larger Write down the label of the entry you select.
1
(1: 5.01 min, 2: 0.7 min)

1 = CC(=O)NC(CO)C(=O)O (stereo not given) [N-ACETYLSERINE]
2 = O=C1CCCCO1 [5-VALEROLACTONE]
API: POST /compare with 1 and 2 ; response names the item with higher LC retention time. Give the label of your selection.
2
(2: 6.54 min, 1: 0.78 min)

====

- Measurement Protocol: RP, Thermo Scientific Hypersil GOLD, 1.9 µm, 40 °C, 0.4 mL/min; A: water + 0.1% formic acid, pH 3; B: acetonitrile + 0.1% formic acid, pH 3; gradient (min/%B) 0/0 1/0 11/100 13/100 14/0 16/0
- Condition Summary: stereoisomer not certain
Measured Parameter: LC retention time (min)

C=Cc1c(C)c2cc3[nH]c(cc4nc(cc5nc(cc1[nH]2)C(C)=C5CCC(=O)O)C(CCC(=O)O)=C4C)c(C)c3C=C [PROTOPORPHYRIN]; 11.7
CCC(N)C(=O)O [alpha-aminobutyric acid (L-2-aminobutyric acid)]; 0.69
CC(=O)C(=O)O [pyruvic acid]; 0.78

P = O=Cc1ccc(O)cc1 [4-HYDROXYBENZALDEHYDE]
Q = O=C1OC(C(O)CO)C(O)C1O [L-GULONOLACTONE]
Given P and Q , report the one with the higher recorded LC retention time. Lab log: write the label of the selected item as the result.
P
(P: 5.13 min, Q: 0.66 min)

====

- Measurement Protocol: RP, Thermo Scientific Hypersil GOLD, 1.9 µm, 40 °C, 0.4 mL/min; A: water + 0.1% formic acid, pH 3; B: acetonitrile + 0.1% formic acid, pH 3; gradient (min/%B) 0/0 1/0 11/100 13/100 14/0 16/0
- Condition Summary: stereoisomer not certain
Counter-ions that a name gives are not always drawn.
Measured Parameter: LC retention time (min)

O=C([O-])c1cc(=O)[nH]c(=O)[nH]1 [OROTATE]; 0.77
NCC[Se][Se]CCN; 0.56
CN(C)CC(=O)O; 0.63
Nc1ccccc1S(=O)(=O)O [ANILINE-2-SULFONATE]; 1.42
CCCCCCCCCCCCCC=CC(O)C(CO)NC(C)=O (stereo not given); 10.8
Oc1ccc2[nH]ccc2c1 [5-Hydroxyindole]; 4.72
Cc1ncc(C[n+]2csc(CCO)c2C)c(N)n1; 0.61
O=C(O)C1(O)CC(O)C(O)C(O)C1 (stereo not given) [QUINATE]; 0.68

1 = O=C(O)/C=C/c1cccc(O)c1 [trans-3-Hydroxycinnamic acid (m-Coumaric acid)]
2 = Nc1ncnc2c1ncn2C1OC(CO)C2OP(=O)(O)OC21 (stereo not given) [ADENOSINE 2'-3'-CYCLIC PHOSPHATE]
Which is greater in LC retention time, the first item 1 or the second item 2 ? The response must carry the label of the picked entry.
1
(1: 5.82 min, 2: 0.83 min)

a = COC1=C(OC)C(=O)C(CC=C(C)CCC=C(C)C)=C(C)C1=O
b = Cn1cnc(C[C@H](N)C(=O)O)c1
Parameter metric = LC retention time. Return the lower-valued option from a and b . Write the label of whichever entry you select.
b
(b: 0.59 min, a: 11 min)

P = CC12CCC(=O)C=C1CCC1C2CCC2(C)C1CCC2(O)C(=O)CO (stereo not given) [CORTEXOLONE]
Q = O=C(O)CNC(=O)c1ccccc1 [HIPPURATE]
Lab log: flag the item ( P or Q ) with the smaller LC retention time figure. # respond with the chosen item's label
Q
(Q: 4.92 min, P: 7.48 min)

1 = NC(Cc1cc(I)c(Oc2ccc(O)c(I)c2)c(I)c1)C(=O)O (stereo not given)
2 = O=C(O)C1CCCN1 (stereo not given)
3 = Nc1nc2c(ncn2C2CC(O)C(CO)O2)c(=O)[nH]1 (stereo not given)
4 = O=S(=O)(O)Oc1c[nH]c2ccccc12 [INDOXYL SULFATE]
5 = CC(O)(CC(=O)O)C(=O)O (stereo not given) [CITRAMALATE]
Task field, ranking: reported LC retention time, descending order. Submit the labels in the order that the ranking request calls for.
1, 4, 3, 5, 2
(1: 6.99 min, 4: 4.77 min, 3: 1.77 min, 5: 1.23 min, 2: 0.69 min)

A = Cc1cc(O)cc2c1OC(C)(CCC(=O)O)CC2 (stereo not given)
B = Nc1ccccc1O
C = O=c1[nH]cnc2c1ncn2C1OC(CO)C(O)C1O (stereo not given)
D = CN1CC(=O)NC1=N
Would you mind ranking these molecules by ascending LC retention time? Kindly provide the labels arranged according to the requested ordering.
D, B, C, A

I = OCC1OC(OC2OC(CO)C(O)C(O)C2O)C(O)C(O)C1O (stereo not given)
II = CC12CCC3c4ccc(O)cc4CCC3C1CCC2O (stereo not given)
III = CC(C)CC(=O)OC(CC(=O)[O-])C[N+](C)(C)C (stereo not given)
IV = [NH3+]C(C(=O)[O-])C(O)c1ccccc1 (racemic)
Highest LC retention time first, then in falling order down to the smallest. Put the labels in the requested order and write them down.
II, III, IV, I
(II: 8.07 min, III: 4.92 min, IV: 1.14 min, I: 0.65 min)

1 = CCCC(N)C(=O)O (stereo not given)
2 = CC1NC(=O)NC1CCCCCC(=O)O (stereo not given)
Returns: the label, 1 or 2 , whose recorded LC retention time is the lower number. Please respond with the label that marks your chosen entry.
1
(1: 0.82 min, 2: 5.47 min)

I = O=C(O)C=Cc1cnc[nH]1 [UROCANATE]
II = O=C(O)c1ccc(O)cc1O [2-4-Dihydroxybenzoic acid]
Pick the one with the larger LC retention time: I vs II To answer, give the label that identifies your chosen option.
II
